tested on: LYN; details: concentration: 1 μM,replicates: in singlicate; n = 1;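 note: KINOMEscan kinase panel screen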
READOUT KIND: %Inh (%)
Your answer is read as %, so omit the unit and give the number.

MOLECULE: Cc1cc2cn[nH]c2cc1-c1cccc2c(N)c(C(N)=O)nnc12
%Inh, %: 26
//
MOLECULE: Cc1cc(C(=O)Nc2ccc(Oc3ccc4nc(NC(=O)C5CC5)cn4n3)cc2)nn1-c1ccccc1
%Inh, %: 19
//
MOLECULE: CC(C)Nc1cc(-c2ccc3c(N)n[nH]c3c2)nc(N)n1
%Inh, %: 0

Field %Inh (entry Cl.Cl.Nc1nc(-c2ccc3c(N)n[nH]c3c2)cc(N2CCCC(NC(=O)c3ccccc3)C2)n1 (stereo not drawn) ) reads 0

Field %Inh (entry C[C@@H](Oc1cc(-c2cnn(C3CCNCC3)c2)cnc1N)c1c(Cl)ccc(F)c1Cl ) reads 37

Field %Inh (entry CN(C)CCOc1ccc(-c2cc(-c3c[nH]nc3-c3ccccn3)ccn2)cc1 ) reads 18

====

tested on: EPHA7; conditions: concentration: 1 μM,replicates: in singlicate; n = 1
Lab note: compare %Inh with 10%, writing fulfilled if less and not fulfilled if equal or more.

Before answering, review these 8 worked examples.
MOLECULE: Cc1cc2cn[nH]c2cc1-c1cccc2c(N)c(C(N)=O)nnc12
TARGET UNDER TEST: EPHA7
QUALITATIVE LABEL: not fulfilled
//
MOLECULE: Cc1occc1-c1nc(N)c(OC[C@@H](N)Cc2c[nH]c3ccccc23)cc1-c1cc2c(C)n[nH]c2cn1 [GSK1660450]
TARGET UNDER TEST: EPHA7
QUALITATIVE LABEL: fulfilled
//
MOLECULE: NC(=O)c1cc(-c2ccccc2)cc2c(C3CCNCC3)c[nH]c12 [GSK301362]
TARGET UNDER TEST: EPHA7
QUALITATIVE LABEL: not fulfilled
//
MOLECULE: CCn1c(-c2nonc2N)nc2c(C#CC(C)(C)O)nc(OCCN)cc21.Cl.Cl [GSK902056]
TARGET UNDER TEST: EPHA7
QUALITATIVE LABEL: fulfilled
//
MOLECULE: O=C(NCCNc1ccnc(NCc2ccc(F)cc2)n1)c1cc2ccccc2s1 [GSK1379944]
TARGET UNDER TEST: EPHA7
QUALITATIVE LABEL: not fulfilled
//
MOLECULE: CN(C)CC(O)COc1ccc(Nc2nccc(-c3cnn4nc(N5CCOCC5)ccc34)n2)cc1 (centres unmarked) [GW767488]
TARGET UNDER TEST: EPHA7
QUALITATIVE LABEL: fulfilled
//
MOLECULE: CN(C)CCOc1ccc(-c2cc(-c3c[nH]nc3-c3ccccn3)ccn2)cc1 [GW835314]
TARGET UNDER TEST: EPHA7
QUALITATIVE LABEL: fulfilled
//
MOLECULE: C[C@@H]1CCN(C(=O)CC#N)C[C@@H]1N(C)c1ncnc2[nH]ccc12
TARGET UNDER TEST: EPHA7
QUALITATIVE LABEL: not fulfilled

# strict comparison: is reported %Inh < 10%? input = Cc1cc(C(=O)Nc2ccc(Oc3ccc4nc(NC(=O)C5CC5)cn4n3)cc2)nn1-c1ccccc1
fulfilled

# strict comparison: is reported %Inh < 10%? input = Cl.Cl.Nc1nc(-c2ccc3c(N)n[nH]c3c2)cc(N2CCCC(NC(=O)c3ccccc3)C2)n1 (centres unmarked) [GSK2286775]
not fulfilled

# strict comparison: is reported %Inh < 10%? input = CCN(CC)CCOc1ccc(Nc2ncc3cc(-c4c(Cl)cccc4Cl)c(=O)n(C)c3n2)cc1 [SB-601273]
not fulfilled

# strict comparison: is reported %Inh < 10%? input = Nc1nc(Nc2ccccc2)cc(-c2ccc3c(N)n[nH]c3c2)n1 [GSK2225749]
fulfilled

# strict comparison: is reported %Inh < 10%? input = C[C@H]1Oc2cc(cnc2N)-c2c(nn(C)c2C#N)CN(C)C(=O)c2ccc(F)cc21
not fulfilled

# strict comparison: is reported %Inh < 10%? input = C=CC(=O)Nc1cc2c(Nc3ccc(F)c(Cl)c3)ncnc2cc1OCCCN1CCOCC1 [GW781483]
fulfilled

# strict comparison: is reported %Inh < 10%? input = COc1ccc(C[C@@H](CN)NC(=O)c2cc(Br)c(-c3ccnc4[nH]ccc34)s2)cc1.Cl.Cl [GSK1389063]
not fulfilled

====

system: CSF1R-autoinhibited; conditions: concentration: 1 μM,replicates: in singlicate; n = 1
READOUT KIND: %Inh (%)
Your answer is read as %, so omit the unit and give the number.

Guide cases for %Inh, answers given:
COMPOUND: C[C@@H](Oc1cc(-c2cnn(C3CCNCC3)c2)cnc1N)c1c(Cl)ccc(F)c1Cl
TARGET UNDER TEST: CSF1R-autoinhibited
%Inh (%): 82
--
COMPOUND: C=CC(=O)Nc1cc2c(Nc3ccc(F)c(Cl)c3)ncnc2cc1OCCCN1CCOCC1
TARGET UNDER TEST: CSF1R-autoinhibited
%Inh (%): 35
--
COMPOUND: CN(C)CC(O)COc1ccc(Nc2nccc(-c3cnn4nc(N5CCOCC5)ccc34)n2)cc1 (centres unmarked)
TARGET UNDER TEST: CSF1R-autoinhibited
%Inh (%): 15
--
COMPOUND: CCN(CC)CCOc1ccc(Nc2ncc3cc(-c4c(Cl)cccc4Cl)c(=O)n(C)c3n2)cc1
TARGET UNDER TEST: CSF1R-autoinhibited
%Inh (%): 100
--
COMPOUND: Cc1cc2cn[nH]c2cc1-c1cccc2c(N)c(C(N)=O)nnc12
TARGET UNDER TEST: CSF1R-autoinhibited
%Inh (%): 0
--
COMPOUND: Nc1nc(Nc2ccccc2)cc(-c2ccc3c(N)n[nH]c3c2)n1
TARGET UNDER TEST: CSF1R-autoinhibited
%Inh (%): 0

Field %Inh (entry C[C@H]1Oc2cc(cnc2N)-c2c(nn(C)c2C#N)CN(C)C(=O)c2ccc(F)cc21 ) reads 0

Field %Inh (entry Cc1n[nH]c2ccc(-c3cc(OC[C@@H](N)Cc4ccccc4)cnc3-c3ccoc3)cc12.O=C(O)C(F)(F)F.O=C(O)C(F)(F)F ) reads 0

====

Listed here: items and their measured %Inh.
tested on: MST1; construct: gene STK4; settings: concentration: 1 μM,replicates: in singlicate; n = 1
Your answer is read as %, so omit the unit and give the number.

Guide cases for %Inh, answers given:
STRUCTURE AS SMILES: CN(C)CCOc1ccc(-c2cc(-c3c[nH]nc3-c3ccccn3)ccn2)cc1
READOUT KIND: %Inh
NUMERIC READOUT: 25
//
STRUCTURE AS SMILES: Cc1ccc(-n2nc(C(C)(C)C)cc2NC(=O)Nc2ccc(OCCN3CCOCC3)c3ccccc23)cc1
READOUT KIND: %Inh
NUMERIC READOUT: 0
//
STRUCTURE AS SMILES: C[C@@H]1CCN(C(=O)CC#N)C[C@@H]1N(C)c1ncnc2[nH]ccc12
READOUT KIND: %Inh
NUMERIC READOUT: 3

Field %Inh (entry COc1ccc(C[C@@H](CN)NC(=O)c2cc(Br)c(-c3ccnc4[nH]ccc34)s2)cc1.Cl.Cl ) reads 0

====

tested on: PAK7; conditions: concentration: 1 μM,replicates: in singlicate; n = 1
READOUT KIND: %Inh (%)
Your answer is read as %, so omit the unit and give the number.

Guide cases for %Inh, answers given:
MOLECULE: Cc1n[nH]c2ccc(-c3cc(OC[C@@H](N)Cc4ccccc4)cnc3-c3ccoc3)cc12.O=C(O)C(F)(F)F.O=C(O)C(F)(F)F
NUMERIC READOUT: 56

MOLECULE: Nc1nc(Nc2ccccc2)cc(-c2ccc3c(N)n[nH]c3c2)n1
NUMERIC READOUT: 0

MOLECULE: Cl.Cl.NC[C@H](Cc1ccc(C(F)(F)F)cc1)NC(=O)c1cc(Br)c(-c2ccnc3[nH]ccc23)s1
NUMERIC READOUT: 33

MOLECULE: NC(=O)c1cc(-c2ccccc2)cc2c(C3CCNCC3)c[nH]c12
NUMERIC READOUT: 4

MOLECULE: Cl.Cl.NC[C@H](CC1CCCCC1)NC(=O)c1cc(Br)c(-c2ccnc3[nH]ccc23)s1
NUMERIC READOUT: 42

MOLECULE: O=C(NCCCN1CCOC1=O)c1cnc(NCc2cc(Cl)ccc2Cl)nc1NC1CCCC1
NUMERIC READOUT: 2

Field %Inh (entry Cc1cc(C(=O)Nc2ccc(Oc3ccc4nc(NC(=O)C5CC5)cn4n3)cc2)nn1-c1ccccc1 ) reads 0

Field %Inh (entry CN(C)CCOc1ccc(-c2cc(-c3c[nH]nc3-c3ccccn3)ccn2)cc1 ) reads 4

Field %Inh (entry C[C@@H](Oc1cc(-c2cnn(C3CCNCC3)c2)cnc1N)c1c(Cl)ccc(F)c1Cl ) reads 0

Field %Inh (entry CNC(=O)c1ccccc1Sc1ccc2c(/C=C/c3ccccn3)n[nH]c2c1 ) reads 40

Field %Inh (entry CN(C)CC(O)COc1ccc(Nc2nccc(-c3cnn4nc(N5CCOCC5)ccc34)n2)cc1 (stereo not drawn) ) reads 9

Field %Inh (entry C[C@@H]1CCN(C(=O)CC#N)C[C@@H]1N(C)c1ncnc2[nH]ccc12 ) reads 0
